- subject-of-test: human glucagon receptor (human) (UniProt P47871)
- Sequence (P47871 26-477): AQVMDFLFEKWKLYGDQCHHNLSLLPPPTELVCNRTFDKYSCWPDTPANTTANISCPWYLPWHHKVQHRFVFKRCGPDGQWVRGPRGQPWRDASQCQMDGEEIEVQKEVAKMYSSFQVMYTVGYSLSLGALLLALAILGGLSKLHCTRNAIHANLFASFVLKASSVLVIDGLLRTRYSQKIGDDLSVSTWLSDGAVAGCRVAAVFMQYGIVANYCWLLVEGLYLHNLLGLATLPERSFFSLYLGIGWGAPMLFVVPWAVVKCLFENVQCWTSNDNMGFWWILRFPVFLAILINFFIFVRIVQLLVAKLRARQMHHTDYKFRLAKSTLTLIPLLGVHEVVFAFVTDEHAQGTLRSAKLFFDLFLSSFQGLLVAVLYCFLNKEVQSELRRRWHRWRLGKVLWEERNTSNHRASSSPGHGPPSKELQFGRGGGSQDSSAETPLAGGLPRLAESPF
- experiment-description: cell-based or functional assay
Starred links: 1 amine or outer side, 2 acyl side, 3 side chain; linkers in the order of their positions; H or OH if unused. Non-standard residues stand in square brackets, D forms with d. Groups on a side chain read outwards from the residue. No end group written: not given here. *: point of attachment. C20 diacid = O=C(O)CCCCCCCCCCCCCCCCCCC(=O)*; γGlu = O=C(O)[C@H](CCC(=O)[*:2])N[*:1]; αMeL = CC(C)C[C@](C)(N)C(=O)O; AEEA = NCCOCCOCC(=O)O; Aib = CC(C)(N)C(=O)O
measured-quantity: cAMP Rel EC50 (in the presence of 1% HSA)
Mention the unit after the number when you answer.

binder: YXQGTXTSDXXIXLDXKAQXEFIEXLIEGGPPSXXPPPSGGGE (Lys acylated with AEEA-γGlu-C18 diacid; non-natural residues; C-amide; synthetic construct; SITE 2: note = 2-Aminoisobutyric Acid; SITE 6: note = alpha-methyl-2-fluoro-L-phenylalanine; SITE 10: note = 3-(4-Pyridyl)-L-alanine; SITE 11: note = alpha-methyl-L-serine; SITE 13: note = alpha-methyl-leucine; SITE 16: note = L-ornithine; SITE 17: note = Lysine is chemically mo) [Example 1199]
value: 352 nM
//
binder: Y[Aib]QGTFTSDFSK[αMeL]LDKK([AEEA-γGlu-C20 diacid])AQQAFIEYLLA[Aib]GPSSGEPPPSEG-NH2 [Example 19]
value: 1010 nM
//
binder: YXQGTFTSDXSKXLDKKAQXAFIEYLIEXGESSGEPPPSGE (Aib, 4Pal, alpha-methyl-Leu, lipidated Lys, C-terminal amide; synthetic construct; SITE 2: note = 2-Aminoisobutyric Acid; SITE 10: note = 3-(4-Pyridyl)-L-alanine; SITE 13: note = alpha-methyl-leucine; SITE 17: note = Lysine is chemically modified through conjugation of the epsilon-amino group of the Lysine side chain with (2-[2-(2-Amino-ethoxy)-ethoxy]-acetyl)) [Example 281]
value: 1370 nM
//
binder: YXQGTXTSDXXIXLDXKAQXEFIEXLIEGGPSSXAPPPEGE (Non-natural residues; K AEEA-γGlu-C18 diacid; amide; position 35 uncertain; synthetic construct; SITE 2: note = 2-Aminoisobutyric Acid; SITE 6: note = alpha-methyl-2-fluoro-L-phenylalanine; SITE 10: note = 3-(4-Pyridyl)-L-alanine; SITE 11: note = alpha-methyl-L-serine; SITE 13: note = alpha-methyl-leucine; SITE 16: note = L-ornithine; SITE 17: note = Lysine is chemically mo) [Example 1192]
value: 218 nM
//
binder: YXQGTXTSDXSIXLDKKAQXXFIEYLSEGGPSSGEPPPSGSEE (non-natural residues; diacid-(γ-Glu)2 acylated Lys; C-terminal amide; synthetic construct; SITE 2: note = 2-Aminoisobutyric Acid; SITE 6: note = alpha-methyl-2-fluoro-L-phenylalanine; SITE 10: note = 3-(4-Pyridyl)-L-alanine; SITE 13: note = alpha-methyl-leucine; SITE 17: note = Lysine is chemically modified through conjugation of the epsilon-amino group of the Lysine) [Example 637]
value: 968 nM

API: the following record is the query input.
q: Recorded cAMP Rel EC50 (in the presence of 1% HSA) of YXQGTFTSDYSIXLDKKAAXAFIEYLLEGGPSSGEPPPSEG (Aib, αMeL; lysine acylated (AEEA)2-γGlu-C20 diacid; C-terminal amide; synthetic construct; SITE 2: note = 2-Aminoisobutyric Acid; SITE 13: note = alpha-methyl-leucine; SITE 17: note = Lysine is chemically modified through conjugation of the epsilon-amino group of the Lysine side chain with (2-[2-(2-Amino-ethoxy)-ethoxy]-acetyl)2-(gamma-Glu)-CO-(CH2 )18-CO2H; SITE 20:) [Example 294] , please.
a: 518 nM
